Collected DC50 values appear next to each entry.
# Target: Nanoluciferase-BRD9 fusion protein (Homo sapiens (Human), UniProt Q9H8M2)
# Sequence (Q9H8M2 whole entry, the tested form may be a part): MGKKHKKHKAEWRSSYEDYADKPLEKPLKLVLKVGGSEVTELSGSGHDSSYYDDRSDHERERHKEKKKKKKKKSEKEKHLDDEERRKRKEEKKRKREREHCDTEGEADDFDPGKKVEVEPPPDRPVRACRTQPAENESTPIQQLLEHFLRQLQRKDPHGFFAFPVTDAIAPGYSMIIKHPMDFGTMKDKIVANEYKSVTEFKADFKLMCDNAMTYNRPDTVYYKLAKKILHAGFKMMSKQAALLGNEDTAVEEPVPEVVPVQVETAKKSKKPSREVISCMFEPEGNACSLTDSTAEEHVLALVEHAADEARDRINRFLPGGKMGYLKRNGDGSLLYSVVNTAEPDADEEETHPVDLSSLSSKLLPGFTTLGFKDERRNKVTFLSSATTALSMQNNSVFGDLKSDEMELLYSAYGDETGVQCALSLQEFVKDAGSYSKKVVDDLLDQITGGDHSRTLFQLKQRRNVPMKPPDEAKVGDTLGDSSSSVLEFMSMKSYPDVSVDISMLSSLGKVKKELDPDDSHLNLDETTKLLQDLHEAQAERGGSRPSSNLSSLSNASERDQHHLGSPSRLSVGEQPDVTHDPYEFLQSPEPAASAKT
# Procedure summary: SYO1 BRD9 NanoLuc degradation assay
# Assay type: cell-based
# Assay conditions: Table 5B; SYO-1 cells expressing 3×FLAG-NLuc-BRD9, 6 hours; read-out: SYO1 BRD9-NanoLuc degradation IC50

Here is how some compounds turned out for DC50.
Compound	DC50
COc1cc(-c2cn(C)c(=O)n3ccnc23)cc(OC)c1CN1CC(CN2CCC3(CC2)CN(c2ccc4c(c2)C(=O)N(C2CCC(=O)NC2=O)C4)C3)C1 (centres unmarked) [Compound D365]	10 to 100 nM
COc1cc(-c2cn(C)c(=O)c3cnccc23)cc(OC)c1CN1CC(CC(=O)N2CCC3(CC2)CCN(c2ccc4c(c2)C(=O)N(C2CCC(=O)NC2=O)C4=O)C3)C1 (centres unmarked) [Compound D191]	< 10 nM
COc1cc(-c2cn(C)c(=O)c3cnccc23)cc(OC)c1CN(C)CCOCCn1cc(COC2CN(c3ccc4c(c3)C(=O)N(C3CCC(=O)NC3=O)C4=O)C2)nn1 (centres unmarked) [Compound D295]	100 to 1000 nM
COc1cc(-c2cn(C)c(=O)c3cnccc23)cc(OC)c1Cn1cc(COC2CCN(c3ccc4c(c3)C(=O)N(C3CCC(=O)NC3=O)C4=O)CC2)nn1 (centres unmarked) [Compound D272]	< 10 nM
COc1cc(-c2cn(C)c(=O)c3cnccc23)cc(OC)c1CN1CCN(C(=O)C#Cc2ccc3c(c2)C(=O)N(C2CCC(=O)NC2=O)C3=O)CC1 (centres unmarked) [Compound D216]	< 10 nM

Q. Which DC50 is reported with Nanoluciferase-BRD9 fusion protein (Homo sapiens (Human), UniProt Q9H8M2) for this entry: COc1cc(-c2cn(C)c(=O)c3cnccc23)cc(OC)c1CN1CC(CC(=O)N2CCC3(CC(Oc4ccc5c(c4)C(=O)N([C@H]4CCC(=O)NC4=O)C5=O)C3)C2)C1 (some centres unmarked) [Compound D267] ?
A. 10 to 100 nM

Q. Lookup COc1cc(-c2cnc(=O)n(C)c2)cc(OC)c1CN1CCN(CCC2CCN(c3ccc4c(c3)C(=O)N(C3CCC(=O)NC3=O)C4=O)CC2)CC1 (centres unmarked) [Compound D342]
A. > 1000 nM

Q. Lookup COc1cc(-c2cn(C)c(=O)c3cnccc23)cc(OC)c1CN(C)CCn1cc(CCOc2ccc3c(c2)C(=O)N(C2CCC(=O)NC2=O)C3=O)nn1 (centres unmarked) [Compound D274]
A. < 10 nM

Q. Lookup COc1cc(-c2cn(C)c(=O)c3cnccc23)cc(OC)c1CN1CCC(c2cc(COc3ccc4c(c3)C(=O)N(C3CCC(=O)NC3=O)C4=O)on2)CC1 (centres unmarked) [Compound D322]
A. < 10 nM

Q. Lookup COc1cc(-c2cn(C)c(=O)c3cnccc23)cc(OC)c1CN(C)CCCn1cc(COC2CN(c3ccc4c(c3)C(=O)N(C3CCC(=O)NC3=O)C4=O)C2)nn1 (centres unmarked) [Compound D286]
A. 10 to 100 nM

Q. Lookup COc1cc(-c2cn(C)c(=O)c3cnccc23)cc(OC)c1CN1CC2(CCN(CC#Cc3ccc4c(c3)C(=O)N(C3CCC(=O)NC3=O)C4=O)C2)C1 (centres unmarked) [Compound D306]
A. < 10 nM

----------
# Target: BRD9 bromodomain (Homo sapiens (Human))
# Sequence (Q9H8M2 133-239): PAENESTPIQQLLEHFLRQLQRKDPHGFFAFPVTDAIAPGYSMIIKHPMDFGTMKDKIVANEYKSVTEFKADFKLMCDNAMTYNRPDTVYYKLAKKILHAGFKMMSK
# Procedure summary: BRD9 bromodomain TR-FRET competition binding assay
# Assay conditions: Table 4; competition with biotinylated ligand, 3 nM Flag-BRD9, 90 minutes
# Method: Procedure: His-Flag-BRD9 (P133-K239; Swiss Prot Q9H8M2; SEQ ID NO:1 mgsshhhhhhenlyfq/gdykddddkgslevlfqg/[…] […]) was cloned, expressed, purified, and then treated with TEV protease. Cleaved His tag was removed by purification. The binding of a biotinylated small molecule ligand of BRD9 was assessed via the LANCE® TR-FRET platform (PerkinElmer), and the compounds were assayed for inhibitory activity against this interaction. […]
pIC50: −log10 of the molar value.
Attribute measured: pIC50

Molecule	Result
COc1cc(-c2cn(C)c(=O)c3cnccc23)cc(OC)c1CN1CC2(CCC2NC(=O)CCOCCOc2cccc3c2C(=O)N(C2CCC(=O)NC2=O)C3=O)C1 (centres unmarked)	7.00 to 8.00
COc1cc(-c2cn(C)c(=O)c3cnccc23)cc(OC)c1CN(C)CC1CC2(CCN(C(=O)CCOCCOc3ccc4c(c3)C(=O)N(C3CCC(=O)NC3=O)C4=O)CC2)O1 (centres unmarked)	> 8.00
COc1cc(-c2cn(C)c(=O)c3cnccc23)cc(OC)c1CN1CCN(C(=O)COc2cccc3c2C(=O)N(C2CCC(=O)NC2=O)C3=O)CC1 (centres unmarked)	> 8.00
COc1cc(-c2cn(C)c(=O)c3cnccc23)cc(OC)c1CN1CC(C(=O)NCCCCCCCCNc2cccc3c2C(=O)N(C2CCC(=O)N(C)C2=O)C3=O)C1 (centres unmarked)	> 8.00

In the following, a different molecule is considered.
Q. Using the record for COc1cc(-c2cn(C)c(=O)c3cnccc23)cc(OC)c1CN(C)C1CCC12CCN(C(=O)CCOCCOc1ccc3c(c1)C(=O)N(C1CCC(=O)NC1=O)C3=O)CC2 (centres unmarked) , report its pIC50.
A. 7.00 to 8.00

----------
Collected IC50 values appear next to each entry.
# Target: Nanoluciferase-BRD9 fusion protein (Homo sapiens (Human), UniProt Q9H8M2)
# Procedure summary: SYO1 BRD9 NanoLuc degradation assay
# Format: cell-based
# Assay conditions: Table 5A; SYO-1 cells expressing 3×FLAG-NLuc-BRD9, 6 hours

Molecule	Target	Attribute measured	Result
COc1cc(-c2cn(C)c(=O)c3cnccc23)cc(OC)c1CN1CC(S(=O)(=O)NCCCCCNc2ccc3c(c2)C(=O)N(C2CCC(=O)NC2=O)C3=O)C1 (centres unmarked)	Nanoluciferase-BRD9 fusion protein (Homo sapiens (Human), UniProt Q9H8M2)	IC50	< 10 nM
COc1cc(-c2cn(C)c(=O)c3cnccc23)cc(OC)c1CN1CCC12CN(C(=O)CCOCCOc1cccc3c1C(=O)N(C1CCC(=O)NC1=O)C3=O)C2 (centres unmarked)	Nanoluciferase-BRD9 fusion protein (Homo sapiens (Human), UniProt Q9H8M2)	IC50	100 to 1000 nM

Q. Using the record for COc1cc(-c2cn(C)c(=O)c3cnccc23)cc(OC)c1CN1CCC(COC2CCN(C(=O)CCOCCOc3ccc4c(c3)C(=O)N(C3CCC(=O)NC3=O)C4=O)C2)CC1 (centres unmarked) , report its IC50.
A. < 10 nM

Q. Lookup COc1cc(-c2cn(C)c(=O)c3cnccc23)cc(OC)c1CN1CCC(OC2CCN(C(=O)CCOCCOc3ccc4c(c3)C(=O)N(C3CCC(=O)NC3=O)C4=O)CC2)CC1 (centres unmarked)
A. < 10 nM

Q. Lookup COc1cc(-c2cn(C)c(=O)c3cnccc23)cc(OC)c1CN1CCC2(C1)CN(C(=O)CCOCCOc1ccc3c(c1)C(=O)N(C1CCC(=O)NC1=O)C3=O)C2 (centres unmarked)
A. 10 to 100 nM

----------
# Target: Nanoluciferase-BRD9 fusion protein (Homo sapiens (Human))
# Procedure summary: SYO1 BRD9 NanoLuc degradation assay
# Format: cell-based
# Assay conditions: Table 5A; SYO-1 cells expressing 3×FLAG-NLuc-BRD9, 6 hours; read-out: SYO1 BRD9-NanoLuc degradation IC50
Attribute measured: DC50

Here is how some compounds turned out for DC50.
Compound	Target	Attribute measured	Result
COc1cc(-c2cn(C)c(=O)c3cnccc23)cc(OC)c1CN1CCC(C2CCN(C(=O)CCOCCOc3cccc4c3C(=O)N(C3CCC(=O)NC3=O)C4=O)C2)CC1 (stereo not drawn) [Compound D96]	Nanoluciferase-BRD9 fusion protein (Homo sapiens (Human))	DC50	10 to 100 nM
COc1cc(-c2cn(C)c(=O)c3cnccc23)cc(OC)c1CN1CC2(CCN(C(=O)CCOCCOc3ccc4c(c3)C(=O)N(C3CCC(=O)NC3=O)C4=O)CC2)C1 (stereo not drawn) [Compound D118]	Nanoluciferase-BRD9 fusion protein (Homo sapiens (Human))	DC50	10 to 100 nM
COc1cc(-c2cn(C)c(=O)c3cnccc23)cc(OC)c1CN1CC(CC(=O)NC2CC3(C2)CC(Oc2ccc4c(c2)C(=O)N(C2CCC(=O)NC2=O)C4=O)C3)C1 (stereo not drawn) [Compound D78]	Nanoluciferase-BRD9 fusion protein (Homo sapiens (Human))	DC50	10 to 100 nM
COc1cc(-c2cn(C)c(=O)c3cnccc23)cc(OC)c1CN1CCC(CCN2CCN(c3ccc4c(c3)C(=O)N(C3CCC(=O)NC3=O)C4=O)CC2)CC1 (stereo not drawn) [Compound D42, formic acid]	Nanoluciferase-BRD9 fusion protein (Homo sapiens (Human))	DC50	< 10 nM
COc1cc(-c2cn(C)c(=O)c3cnccc23)cc(OC)c1CN(C)CC1CC2(CCN(C(=O)CCOCCOc3cccc4c3C(=O)N(C3CCC(=O)NC3=O)C4=O)CC2)CO1 (stereo not drawn) [Compound D109]	Nanoluciferase-BRD9 fusion protein (Homo sapiens (Human))	DC50	10 to 100 nM

Q. Using the record for COc1cc(-c2cn(C)c(=O)c3cnccc23)cc(OC)c1CN1CCC2(CC1)CN(C(=O)COc1cccc3c1C(=O)N(C1CCC(=O)NC1=O)C3=O)CCO2 (stereo not drawn) [Compound D41, formic acid] , report its DC50.
A. 10 to 100 nM

Q. Lookup COc1cc(-c2cn(C)c(=O)c3cnccc23)cc(OC)c1CN1CCC2(C1)CN(C(=O)CCOCCOc1cccc3c1C(=O)N(C1CCC(=O)NC1=O)C3=O)C2 (stereo not drawn) [Compound D87]
A. 10 to 100 nM

Q. Lookup COc1cc(-c2cn(C)c(=O)c3cnccc23)cc(OC)c1CN1CC[C@H]1C(=O)NCCCCCCCCNc1cccc2c1C(=O)N([C@H]1CCC(=O)NC1=O)C2=O [Compound D19]
A. < 10 nM

Q. Lookup COc1cc(-c2cn(C)c(=O)c3cnccc23)cc(OC)c1CN(C)CC1CC2CN(C(=O)CCOCCOc3cccc4c3C(=O)N(C3CCC(=O)NC3=O)C4=O)C[C@@H]2C1 (stereo partly drawn) [Compound D166]
A. 10 to 100 nM

Q. Lookup COc1cc(-c2cn(C)c(=O)c3cnccc23)cc(OC)c1CN1CC[C@H]1CN(C)Cc1cccc2c1C(=O)N(C1CCC(=O)NC1=O)C2=O (stereo partly drawn) [Compound D27]
A. 10 to 100 nM

Q. Lookup COc1cc(-c2cn(C)c(=O)c3cnccc23)cc(OC)c1CN(C)CC(=O)NCCCC(=O)NC12CC(Nc3cccc4c3C(=O)N(C3CCC(=O)NC3=O)C4=O)(C1)C2 (stereo not drawn) [Compound D71]
A. < 10 nM

Q. Lookup COc1cc(-c2cn(C)c(=O)c3cnccc23)cc(OC)c1CN1CC2(CC(CCOc3ccc4c(c3)C(=O)N(C3CCC(=O)NC3=O)C4=O)C2)C1 (stereo not drawn) [Compound D48, formic acid]
A. 10 to 100 nM

Q. Lookup COc1cc(-c2cn(C)c(=O)c3cnccc23)cc(OC)c1CN(C)C1CCN(CCOc2ccc3c(c2)C(=O)N(C2CCC(=O)NC2=O)C3=O)CC1 (stereo not drawn) [Compound D51]
A. < 10 nM

Q. Lookup COc1cc(-c2cn(C)c(=O)c3cnccc23)cc(OC)c1CN1CC(CCNC(=O)CCOCCOc2ccc3c(c2)C(=O)N(C2CCC(=O)NC2=O)C3=O)C1 (stereo not drawn) [Compound D117]
A. 100 to 1000 nM

Q. Lookup COc1cc(-c2cn(C)c(=O)c3cnccc23)cc(OC)c1CN1CC[C@H]1C(=O)NCCCCCCCCNc1cccc2c1C(=O)N([C@@H]1CCC(=O)NC1=O)C2=O (stereo in doubt) [Compound D18]
A. < 10 nM

Q. Lookup COc1cc(-c2cn(C)c(=O)c3cnccc23)cc(OC)c1CN1CC(N)(C(=O)NCCCCCCCCNc2cccc3c2C(=O)N(C2CCC(=O)NC2=O)C3=O)C1 (stereo not drawn) [Compound D17]
A. < 10 nM

Q. Lookup COc1cc(-c2cn(C)c(=O)c3cnccc23)cc(OC)c1CN1CC(S(=O)(=O)NCCCCNc2ccc3c(c2)C(=O)N(C2CCC(=O)NC2=O)C3=O)C1 (stereo not drawn) [Compound D22]
A. 10 to 100 nM

Q. Lookup COc1cc(-c2cn(C)c(=O)c3cnccc23)cc(OC)c1CN(C)CC1CC2(CCN(C(=O)CCOCCOc3cccc4c3C(=O)N(C3CCC(=O)NC3=O)C4=O)CC2)O1 (stereo not drawn) [Compound D159]
A. 10 to 100 nM

Q. Lookup COc1cc(-c2cn(C)c(=O)c3cnccc23)cc(OC)c1CN1CC(CC(=O)N2CC3(CCC(Oc4ccc5c(c4)C(=O)N(C4CCC(=O)NC4=O)C5=O)C3)C2)C1 (stereo not drawn) [Compound D79]
A. 100 to 1000 nM

Q. Lookup COc1cc(-c2cn(C)c(=O)c3cnccc23)cc(OC)c1CN1CC2(C1)CN(C(=O)COc1cccc3c1C(=O)N(C1CCC(=O)NC1=O)C3=O)C2 (stereo not drawn) [Compound D36]
A. 100 to 1000 nM

Q. Lookup COc1cc(-c2cn(C)c(=O)c3cnccc23)cc(OC)c1CN1CC(C(=O)NCCCCCCCCNC(=O)COc2cccc3c2C(=O)N(C2CCC(=O)NC2=O)C3=O)C1 (stereo not drawn) [Compound D4, formic acid]
A. 10 to 100 nM

Numbers sourced from patent US11414416B1.
